- System: Hs578T complex spheroid growth, percent test/control
- protocol description: Anticancer human tumor Hs578T cell line growth inhibition [AhR]; active means viability on the fitted dose curve at most 10% of control; inactive means the rest
- condition notes: second compound 3.16 µM; first compound 10 µM
The reply should name one outcome from active, inactive

As a guide, the following entries are already answered.
>>> label("O=C(C=Cc1cccc(S(=O)(=O)Nc2ccccc2)c1)NO + Cc1ccccc1N=Nc1ccc(NC(=O)c2ccnn2C)c(C)c1")
"active"
>>> label("Nc1ccn(C2OC(CO)C(O)C2(F)F)c(=O)n1 (stereo not drawn) + CC(CO)NC(=O)c1cc(-c2ccc(Cl)cc2)nn(-c2cnn(C)c2)c1=O")
"inactive"
>>> label("O=C(C=Cc1cccc(S(=O)(=O)Nc2ccccc2)c1)NO + CC(CO)NC(=O)c1cc(-c2ccc(Cl)cc2)nn(-c2cnn(C)c2)c1=O")
"active"
>>> label("COc1ccc([C@@H](O)c2cc(-c3ncnc4cc(N5CCOCC5)ccc34)c(F)cc2Cl)nn1 + Cc1cncc(-c2nc(NCCc3c[nH]c4ccccc34)c3ncn(C(C)C)c3n2)c1")
"inactive"
>>> label("CC(C)c1c(-c2ccccc2)nc2c(C#N)c[nH]n2c1=O + Cc1cncc(-c2nc(NCCc3c[nH]c4ccccc34)c3ncn(C(C)C)c3n2)c1")
"inactive"
>>> label("COc1cc(C2c3cc4c(cc3C(OC3OC5COC(C)OC5C(O)C3O)C3COC(=O)C23)OCO4)cc(OC)c1O (stereo not drawn) + Cc1cncc(-c2nc(NCCc3c[nH]c4ccccc34)c3ncn(C(C)C)c3n2)c1")
"inactive"
>>> label("Nc1ccn(C2OC(CO)C(O)C2(F)F)c(=O)n1 (stereo not drawn) + Cc1ccccc1N=Nc1ccc(NC(=O)c2ccnn2C)c(C)c1")
"inactive"
>>> label("CC1(C)CCC(CN2CCN(c3ccc(C(=O)NS(=O)(=O)c4ccc(NCC5CCOCC5)c([N+](=O)[O-])c4)c(Oc4cnc5[nH]ccc5c4)c3)CC2)=C(c2ccc(Cl)cc2)C1 + Cc1cncc(-c2nc(NCCc3c[nH]c4ccccc34)c3ncn(C(C)C)c3n2)c1")
"inactive"

Data request: Returns: the outcome recorded for COc1cccc2c1C(=O)c1c(O)c3c(c(O)c1C2=O)CC(O)(C(=O)CO)CC3OC1CC(N)C(O)C(C)O1 (stereo not drawn) + Cc1ccccc1N=Nc1ccc(NC(=O)c2ccnn2C)c(C)c1 in this assay.
Data returned: active

Data request: Recorded test outcome, item NS(=O)(=O)OCC1CC(n2ccc3c(NC4CCc5ccccc54)ncnc32)CC1O (stereo not drawn) + Cc1ccccc1N=Nc1ccc(NC(=O)c2ccnn2C)c(C)c1
Data returned: inactive

Data request: // return assay outcome for COc1cc(Nc2ncc3c(n2)-c2ccc(Cl)cc2C(c2c(F)cccc2OC)=NC3)ccc1C(=O)O + Cc1cncc(-c2nc(NCCc3c[nH]c4ccccc34)c3ncn(C(C)C)c3n2)c1
Data returned: inactive

Data request: // outcome(item) with item = COc1ccc([C@@H](O)c2cc(-c3ncnc4cc(N5CCOCC5)ccc34)c(F)cc2Cl)nn1 + CC(CO)NC(=O)c1cc(-c2ccc(Cl)cc2)nn(-c2cnn(C)c2)c1=O
Data returned: inactive

Data request: Each compound tested received a call. Report the one for CC(C)c1c(-c2ccccc2)nc2c(C#N)c[nH]n2c1=O + Cc1ccccc1N=Nc1ccc(NC(=O)c2ccnn2C)c(C)c1 .
Data returned: inactive

* * *

- Test system: Hs578T complex spheroid growth, percent test/control
- protocol description: Anticancer human tumor Hs578T cell line growth inhibition [AhR];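 further: luminescent viability signal as a proxy for spheroid growth; spheroids exposed to agents for one week after three days of growth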
- condition notes: second compound 1 µM; first compound 3.16 µM; stronger effect = lower value
readout: viability, T/C

Use the examples below as a reference point.
>>> val("CC1(C)CCC(CN2CCN(c3ccc(C(=O)NS(=O)(=O)c4ccc(NCC5CCOCC5)c([N+](=O)[O-])c4)c(Oc4cnc5[nH]ccc5c4)c3)CC2)=C(c2ccc(Cl)cc2)C1 + Cc1cncc(-c2nc(NCCc3c[nH]c4ccccc34)c3ncn(C(C)C)c3n2)c1")
"111%"
>>> val("COc1cc(Nc2ncc3c(n2)-c2ccc(Cl)cc2C(c2c(F)cccc2OC)=NC3)ccc1C(=O)O + CC(CO)NC(=O)c1cc(-c2ccc(Cl)cc2)nn(-c2cnn(C)c2)c1=O")
"85.3%"

Consider the additional compound presented here.
Data request: Specify viability, T/C for O=C(c1cc(Cc2n[nH]c(=O)c3ccccc23)ccc1F)N1CCN(C(=O)C2CC2)CC1 + CC(CO)NC(=O)c1cc(-c2ccc(Cl)cc2)nn(-c2cnn(C)c2)c1=O and stop.
Data returned: 110%

* * *

- Tested on: Hs578T complex spheroid growth, percent test/control
- protocol description: Anticancer human tumor Hs578T cell line growth inhibition [AhR];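 further: luminescent viability signal as a proxy for spheroid growth; spheroids exposed to agents for one week after three days of growth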
- condition notes: second compound 0.1 µM; first compound 0.316 µM; stronger effect = lower value
readout: viability, T/C (%)
Answers are plain numbers, in %.

>>> val("Nc1ncn(C2CC(O)C(CO)O2)c(=O)n1 (stereo not drawn) + Cc1ccccc1N=Nc1ccc(NC(=O)c2ccnn2C)c(C)c1")
99.2
>>> val("CC1COCCN1c1cc(C2(S(C)(=N)=O)CC2)nc(-c2ccnc3[nH]ccc23)n1 (stereo not drawn) + Cc1ccccc1N=Nc1ccc(NC(=O)c2ccnn2C)c(C)c1")
102

Here is another compound to look at.
Data request: Assign viability, T/C to the following record: O=C(c1cc(Cc2n[nH]c(=O)c3ccccc23)ccc1F)N1CCN(C(=O)C2CC2)CC1 + Cc1cncc(-c2nc(NCCc3c[nH]c4ccccc34)c3ncn(C(C)C)c3n2)c1
Data returned: 119

* * *

- Tested on: Hs578T complex spheroid growth, percent test/control
- protocol description: Anticancer human tumor Hs578T cell line growth inhibition [AhR];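 further: luminescent viability signal as a proxy for spheroid growth; spheroids exposed to agents for one week after three days of growth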
- condition notes: curve of first compound; second compound 1 µM
readout: log10(IC50) (log10 of the value in µM)
Remember, log10 of IC50, in µM.

Some molecules with known log10(IC50) results, for comparison:
>>> val("CCc1c2c(nc3ccc(O)cc13)-c1cc3c(c(=O)n1C2)COC(=O)[C@]3(O)CC + Cc1ccccc1N=Nc1ccc(NC(=O)c2ccnn2C)c(C)c1")
-1.16
>>> val("Nc1ccccc1NC(=O)c1ccc(CNC(=O)OCc2cccnc2)cc1 + CC(CO)NC(=O)c1cc(-c2ccc(Cl)cc2)nn(-c2cnn(C)c2)c1=O")
0.22

Dear colleague, could you send me log10(IC50) for each of the items below? Thanks.
1. O=C(C=Cn1cnc(-c2cc(C(F)(F)F)cc(C(F)(F)F)c2)n1)NNc1cnccn1 + Cc1cncc(-c2nc(NCCc3c[nH]c4ccccc34)c3ncn(C(C)C)c3n2)c1
2. COc1cccc2c1C(=O)c1c(O)c3c(c(O)c1C2=O)CC(O)(C(=O)CO)CC3OC1CC(N)C(O)C(C)O1 (centres undefined) + Cc1ccccc1N=Nc1ccc(NC(=O)c2ccnn2C)c(C)c1
3. O=C(C=Cn1cnc(-c2cc(C(F)(F)F)cc(C(F)(F)F)c2)n1)NNc1cnccn1 + Cc1ccccc1N=Nc1ccc(NC(=O)c2ccnn2C)c(C)c1
4. CC1COCCN1c1cc(-c2ccnn2C)c2ccnc(-c3ccn[nH]3)c2n1 (centres undefined) + Cc1ccccc1N=Nc1ccc(NC(=O)c2ccnn2C)c(C)c1
5. COc1cc(Nc2ncc3c(n2)-c2ccc(Cl)cc2C(c2c(F)cccc2OC)=NC3)ccc1C(=O)O + Cc1ccccc1N=Nc1ccc(NC(=O)c2ccnn2C)c(C)c1

Data returned:
1: -0.46; 2: -0.43; 3: -0.78; 4: -0.58; 5: 0.90

Provide the reported log10(IC50) of each entry below, same order.
1. CC1COCCN1c1cc(C2(S(C)(=N)=O)CC2)nc(-c2ccnc3[nH]ccc23)n1 (centres undefined) + Cc1ccccc1N=Nc1ccc(NC(=O)c2ccnn2C)c(C)c1
2. O=C(C=Cc1cccc(S(=O)(=O)Nc2ccccc2)c1)NO + Cc1ccccc1N=Nc1ccc(NC(=O)c2ccnn2C)c(C)c1
3. CCc1c2c(nc3ccc(O)cc13)-c1cc3c(c(=O)n1C2)COC(=O)[C@]3(O)CC + CC(CO)NC(=O)c1cc(-c2ccc(Cl)cc2)nn(-c2cnn(C)c2)c1=O

Data returned:
0.97
0.27
-0.74

* * *

Could you please report measured viability, T/C for the items listed next?
- System: Hs578T complex spheroid growth, percent test/control
- protocol description: Anticancer human tumor Hs578T cell line growth inhibition [AhR];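 further: luminescent viability signal as a proxy for spheroid growth; spheroids exposed to agents for one week after three days of growth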
- condition notes: second compound 0.1 µM; first compound 3.16 µM; stronger effect = lower value
Give bare numbers, in %.

Here are 3 compounds together with their reported answers.
>>> val("Nc1ccn(C2OC(CO)C(O)C2(F)F)c(=O)n1 (centres undefined) + CC(CO)NC(=O)c1cc(-c2ccc(Cl)cc2)nn(-c2cnn(C)c2)c1=O")
51.9
>>> val("O=C(C=Cc1cccc(S(=O)(=O)Nc2ccccc2)c1)NO + Cc1ccccc1N=Nc1ccc(NC(=O)c2ccnn2C)c(C)c1")
26.2
>>> val("O=C(C=Cc1cccc(S(=O)(=O)Nc2ccccc2)c1)NO + Cc1cncc(-c2nc(NCCc3c[nH]c4ccccc34)c3ncn(C(C)C)c3n2)c1")
39.8

With those in mind, consider the next compound.
Data request: Consider the compound Nc1ccccc1NC(=O)c1ccc(CNC(=O)OCc2cccnc2)cc1 + Cc1cncc(-c2nc(NCCc3c[nH]c4ccccc34)c3ncn(C(C)C)c3n2)c1 and give its recorded viability, T/C.
Data returned: 28.6

Taken from PubChem BioAssay AID1919010.
